test: Substrate specificities of KAZ mutants (ZZ-fused, crude enzyme), CTZ; type: biochemical; conditions: ZZ-fused crude enzyme; 1 μg substrate; integrated for 60 seconds
endpoint-label: Relative Luminescence Activity CTZ Int.
Lab note: write the figure by itself, no unit.

Give the measured Relative Luminescence Activity CTZ Int. of KAZ: wild 19 kDa catalytic protein of Oplophorus luciferase (19kOLase), amino acid sequence SEQ ID NO: 2 (protein, listed as Oplophorus gracilirostris) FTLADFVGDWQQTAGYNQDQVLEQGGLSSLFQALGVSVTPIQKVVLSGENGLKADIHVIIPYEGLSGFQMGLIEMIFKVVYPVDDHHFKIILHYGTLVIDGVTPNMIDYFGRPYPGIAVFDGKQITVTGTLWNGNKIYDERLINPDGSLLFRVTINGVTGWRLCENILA . 1.0
